# TGT: Ephrin type-B receptor 4 (Homo sapiens, UniProt P54760)
# Sequence (P54760 whole entry): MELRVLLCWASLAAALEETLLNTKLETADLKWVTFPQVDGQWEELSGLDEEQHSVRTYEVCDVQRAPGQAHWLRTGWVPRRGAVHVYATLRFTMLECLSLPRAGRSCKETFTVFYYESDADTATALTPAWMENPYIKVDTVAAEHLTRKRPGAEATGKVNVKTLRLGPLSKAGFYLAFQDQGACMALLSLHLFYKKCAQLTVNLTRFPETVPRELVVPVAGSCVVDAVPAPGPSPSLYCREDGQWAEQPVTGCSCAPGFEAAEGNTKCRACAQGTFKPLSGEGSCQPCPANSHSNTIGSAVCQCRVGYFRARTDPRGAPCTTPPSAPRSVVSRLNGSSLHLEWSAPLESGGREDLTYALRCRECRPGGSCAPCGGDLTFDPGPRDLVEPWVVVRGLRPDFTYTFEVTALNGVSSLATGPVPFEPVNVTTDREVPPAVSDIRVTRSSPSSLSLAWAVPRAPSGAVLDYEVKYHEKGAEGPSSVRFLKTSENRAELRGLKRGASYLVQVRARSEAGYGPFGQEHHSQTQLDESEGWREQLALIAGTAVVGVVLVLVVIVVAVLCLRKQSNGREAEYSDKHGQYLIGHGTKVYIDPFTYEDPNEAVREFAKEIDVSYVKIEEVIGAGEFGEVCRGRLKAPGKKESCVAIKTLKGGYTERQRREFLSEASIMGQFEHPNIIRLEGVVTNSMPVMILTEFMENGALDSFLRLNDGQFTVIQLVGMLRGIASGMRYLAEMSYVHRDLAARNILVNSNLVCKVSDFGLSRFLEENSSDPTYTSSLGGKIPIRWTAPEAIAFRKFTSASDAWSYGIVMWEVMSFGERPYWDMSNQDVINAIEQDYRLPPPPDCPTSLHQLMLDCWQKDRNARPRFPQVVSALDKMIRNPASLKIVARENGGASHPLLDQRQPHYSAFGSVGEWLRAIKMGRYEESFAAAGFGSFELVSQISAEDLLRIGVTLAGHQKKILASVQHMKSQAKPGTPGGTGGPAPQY
Calls of active or inactive are those of the source.
Recorded Kd, one value per entry.

Worked cases, Kd given:
- COMPOUND: "Cc1nc(NC(=O)N2CCC[C@H]2C(N)=O)sc1-c1ccnc(C(C)(C)C(F)(F)F)c1"
  Kd: "> 30 µM (inactive)"
- COMPOUND: "Cn1cc(-c2cnn3c(N)c(Br)c([C@@H]4CCCNC4)nc23)cn1"
  Kd: "> 30 µM (inactive)"
- COMPOUND: "CNC(=O)c1cc(Oc2ccc(NC(=O)Nc3cc(C(C)(C)C)nn3-c3ccc4ncccc4c3)c(F)c2)ccn1"
  Kd: "> 30 µM (inactive)"
- COMPOUND: "CO[C@H]1C[C@@H]2CC[C@@H](C)[C@@](O)(O2)C(=O)C(=O)N2CCCC[C@H]2C(=O)O[C@H]([C@H](C)C[C@@H]2CC[C@@H](OC(=O)C(C)(CO)CO)[C@H](OC)C2)CC(=O)[C@H](C)/C=C(\\C)[C@@H](O)[C@@H](OC)C(=O)[C@H](C)C[C@H](C)/C=C/C=C/C=C/1C"
  Kd: "> 30 µM (inactive)"
- COMPOUND: "COc1cc([C@@H]2c3cc4c(cc3[C@H](O)[C@H]3COC(=O)[C@@H]23)OCO4)cc(OC)c1OC"
  Kd: "> 30 µM (inactive)"

Sample CC(=O)NCC(=O)N1[C@@H]2CC[C@H]1c1ccc(Nc3ncc(C(F)(F)F)c(NC4CCC4)n3)cc12 ; Kd observed: > 30 µM (inactive)

Kd recorded for this compound, NC(=O)Nc1cc(-c2cccc(F)c2)sc1C(=O)N[C@H]1CCCNC1 , is > 30 µM (inactive)

The recorded Kd for entry Cc1nc2cc(-c3nn(C(C)C)c4ncnc(N)c34)ccc2o1 equals > 30 µM (inactive)

Query COCC(=O)NC/C=C/c1ccc2ncnc(Nc3ccc(Oc4ccc(C)nc4)c(C)c3)c2c1 yields Kd of > 30 µM (inactive)

For record Cc1cc(C(=O)NOCCO)c(Nc2ccc(I)cc2F)n(C)c1=O the listed Kd is > 30 µM (inactive)

According to the records, this compound C=CC(=O)N1CCC[C@H](n2c(=O)n(-c3ccc(Oc4ccccc4)cc3)c3c(N)ncnc32)C1 displays Kd of > 30 µM (inactive)

Kd in this record for O=c1[nH]ccc2cc(OC3CCNCC3)ccc12 [SAR-407899 FREE BASE] : > 30 µM (inactive)

Recorded result, CCn1cc(-c2ccnc3[nH]c(-c4cccc(CN(C)C)c4)cc23)c(-c2ccc(NC(=O)N(C)C)cc2)n1 , Kd: > 30 µM (inactive)

O=C(Nc1cc(C(F)(F)F)cc(C(F)(F)F)c1)c1cc(Cl)ccc1O has a reported Kd of > 30 µM (inactive)

Form field Kd, entry CO[C@H]1C[C@@H]2CC[C@@H](C)[C@@](O)(O2)C(=O)C(=O)N2CCCC[C@H]2C(=O)O[C@H]([C@H](C)C[C@@H]2CC[C@@H](O)[C@H](OC)C2)CC(=O)[C@H](C)/C=C(\C)[C@@H](O)[C@@H](OC)C(=O)[C@H](C)C[C@H](C)/C=C/C=C/C=C/1C : > 30 µM (inactive)

###

# TGT: Dual specificity mitogen-activated protein kinase kinase 5 (Homo sapiens, UniProt Q13163)
# Sequence (Q13163 whole entry): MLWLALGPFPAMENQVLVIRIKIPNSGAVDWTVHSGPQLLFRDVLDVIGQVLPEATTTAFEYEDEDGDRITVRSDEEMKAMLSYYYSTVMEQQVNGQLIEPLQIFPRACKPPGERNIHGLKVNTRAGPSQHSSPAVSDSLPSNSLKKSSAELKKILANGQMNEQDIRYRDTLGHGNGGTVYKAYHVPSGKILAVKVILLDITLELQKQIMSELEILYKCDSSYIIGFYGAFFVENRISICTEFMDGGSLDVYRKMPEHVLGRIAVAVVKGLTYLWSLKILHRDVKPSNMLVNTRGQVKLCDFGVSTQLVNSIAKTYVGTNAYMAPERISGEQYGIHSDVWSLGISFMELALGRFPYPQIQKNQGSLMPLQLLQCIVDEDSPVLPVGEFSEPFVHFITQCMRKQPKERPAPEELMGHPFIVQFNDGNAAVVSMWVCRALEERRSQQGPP
The source made the active and inactive calls.
TEST READOUT: Kd

- MOLECULE: "NC1(c2ccc(-c3nc4ccn5c(=O)[nH]nc5c4cc3-c3ccccc3)cc2)CCC1"
  Kd: "> 30 µM (inactive)"
- MOLECULE: "O=c1[nH]ccc2cc(OC3CCNCC3)ccc12 [SAR-407899 FREE BASE]"
  Kd: "> 30 µM (inactive)"

With Dual specificity mitogen-activated protein kinase kinase 5 (Homo sapiens, UniProt Q13163) as the test system, CO[C@H]1C[C@@H]2CC[C@@H](C)[C@@](O)(O2)C(=O)C(=O)N2CCCC[C@H]2C(=O)O[C@H]([C@H](C)C[C@@H]2CC[C@@H](O)[C@H](OC)C2)CC(=O)[C@H](C)/C=C(\C)[C@@H](O)[C@@H](OC)C(=O)[C@H](C)C[C@H](C)/C=C/C=C/C=C/1C showed Kd of > 30 µM (inactive)
